Reported hERG current change (%, negative = inhibition) at 10uM values for a set of compounds
- SYSTEM UNDER TEST: human ether-à-go-go-related gene (hERG) potassium channel (human, UniProt Q12809);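 note: peak tail current of the secondary pulse compared with the same well before compound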
- Sequence (Q12809 whole entry, looked up): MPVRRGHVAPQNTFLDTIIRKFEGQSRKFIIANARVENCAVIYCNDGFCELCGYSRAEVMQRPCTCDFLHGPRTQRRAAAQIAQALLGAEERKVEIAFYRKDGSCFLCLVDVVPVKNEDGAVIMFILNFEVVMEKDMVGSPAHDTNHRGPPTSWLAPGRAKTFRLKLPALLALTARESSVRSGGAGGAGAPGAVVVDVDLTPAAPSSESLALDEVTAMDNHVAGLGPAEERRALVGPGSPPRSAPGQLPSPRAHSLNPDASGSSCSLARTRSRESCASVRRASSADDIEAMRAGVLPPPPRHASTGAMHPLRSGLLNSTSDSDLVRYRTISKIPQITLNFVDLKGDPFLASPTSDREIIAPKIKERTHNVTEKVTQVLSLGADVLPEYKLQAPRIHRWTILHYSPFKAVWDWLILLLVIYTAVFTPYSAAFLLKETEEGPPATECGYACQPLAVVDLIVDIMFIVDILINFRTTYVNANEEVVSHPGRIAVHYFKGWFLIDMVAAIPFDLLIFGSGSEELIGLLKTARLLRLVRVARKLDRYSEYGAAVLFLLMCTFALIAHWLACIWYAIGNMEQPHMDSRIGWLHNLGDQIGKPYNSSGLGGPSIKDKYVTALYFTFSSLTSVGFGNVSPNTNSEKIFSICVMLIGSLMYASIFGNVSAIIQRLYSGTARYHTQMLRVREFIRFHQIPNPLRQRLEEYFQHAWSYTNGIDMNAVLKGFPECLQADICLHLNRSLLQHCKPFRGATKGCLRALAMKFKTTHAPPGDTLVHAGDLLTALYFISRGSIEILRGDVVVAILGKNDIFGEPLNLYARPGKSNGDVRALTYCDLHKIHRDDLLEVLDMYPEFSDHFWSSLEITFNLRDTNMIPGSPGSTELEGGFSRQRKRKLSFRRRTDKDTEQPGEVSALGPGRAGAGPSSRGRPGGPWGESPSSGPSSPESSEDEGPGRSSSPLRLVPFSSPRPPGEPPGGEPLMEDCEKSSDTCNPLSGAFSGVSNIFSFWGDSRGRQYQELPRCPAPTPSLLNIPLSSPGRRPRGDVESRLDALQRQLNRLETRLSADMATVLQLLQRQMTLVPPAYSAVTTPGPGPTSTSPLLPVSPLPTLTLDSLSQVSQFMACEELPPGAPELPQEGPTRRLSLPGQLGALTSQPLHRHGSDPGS
- ASSAY REMARKS: primary screen, population patch clamp on CHO cells stably expressing hERG; higher = less effect of the substance
Out of some 310,000 compounds screened, about 14,000 (4.5%) showed an effect of 50% or more. The effect is printed as a negative number. The sample holds strong results, similar compounds and a random draw of the others, so the mix is not that of the screen.
TEST READOUT: hERG current change (%, negative = inhibition) at 10uM (%)

• CCn1c(SCC(=O)NC2CCCC2)nnc1-c1cccnc1 = 5.55
• O=C(Nc1cccc(S(=O)(=O)N2CCOCC2)c1)c1ccc2c(=O)n3c(nc2c1)CCCCC3 = -73.3
• CC1(OC(=O)CCc2ccccc2)C(=O)C=C2C=C(c3ccc(C#N)cc3)N(CCN3CCOCC3)C=C2C1=O (centres unmarked) = -49.9
• O=C(Nc1ccc(S(=O)(=O)C(F)F)cc1)c1ccc2c(=O)n3c(nc2c1)CCC3 = 24.1
• CC1(OC(=O)CCc2ccccc2)C(=O)C=C2C=C(c3ccc(C#N)cc3)N(CCc3c[nH]c4ccccc34)C=C2C1=O (centres unmarked) = -7.98
• Cc1c(-c2ccccc2)[n+](=O)c(-c2ccco2)c(C)n1[O-] = 7.02
• O=C(Nc1ccc2c(c1)nc1n2CCCCC1)c1cc(S(=O)(=O)N2CCOCC2)ccc1Cl = -15.5
• Cc1ccc(S(=O)(=O)N2CCCCC2)cc1NC(=O)c1ccc2c(=O)n3c(nc2c1)CCCCC3 = -64.1

---

- SYSTEM UNDER TEST: human ether-à-go-go-related gene (hERG) potassium channel (human);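 note: peak tail current of the secondary pulse compared with the same well before compound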
- ASSAY REMARKS: primary screen, population patch clamp on CHO cells stably expressing hERG; higher = less effect of the substance
Among all 310,000 compounds or so, about 14,000 (4.5%) showed an effect of 50% or more. The effect is printed as a negative number. Only a selection was taken, and strong results are over-represented in it overall.
Reported hERG current change (%, negative = inhibition) at 10uM values for a set of compounds
TEST READOUT: hERG current change (%, negative = inhibition) at 10uM (%)

• [2H]c1c([2H])c([2H])c(-c2nc(N3CCCCCC3)sc2C(=O)c2ccccc2)c([2H])c1[2H] = -2.19
• CCOC(=O)c1ccc(NC(=O)NC2CC3CCC(C2)N3Cc2nnnn2Cc2ccco2)cc1 (centres unmarked) = -21.1
• COc1ccc(N2CCN(Cc3nc(N)nc(Nc4ccc(C)c(Cl)c4)n3)CC2)cc1 = -63.1
• CC1(C)CC(=O)CC(C2(O)C(=O)N(Cc3ccccc3)c3ccccc32)O1 (centres unmarked) = 7.55
• COc1ccc(N2CCN(c3nc(Nc4ccc(C)c(F)c4)nc(N4CCCC4)n3)CC2)cc1 = 8.35
• Cc1ncc([N+](=O)[O-])n1CCOC(=O)NC(Nc1ccc(F)cc1)C(Cl)(Cl)Cl (centres unmarked) = -54.6
• O=C(c1ccccc1)N1CCN(c2ccc([N+](=O)[O-])c(N3CCOCC3)c2)CC1 = -7.22
• CCN1CCN(Cc2nc(N)nc(Nc3ccc(C)c(C)c3)n2)CC1 = -65.8
• COc1cccc(-c2nn(CCC#N)cc2C(=O)Nc2ccccc2Cl)c1 = 5.09
• Cc1cc(S(=O)(=O)N2CCOCC2)ccc1OCC(=O)NCC1CCCO1 (centres unmarked) = -0.633
• COc1ccc(-n2ccnc2SCC(=O)NCc2ccc3c(c2)OCO3)cc1 = -7.81
• O=C(C1CCCN(S(=O)(=O)c2ccc(F)cc2)C1)N1CCCC1 (centres unmarked) = 5.78
• Cc1nc2ccc(NC(=O)c3cc(Cl)ccn3)cc2s1 = 17.4
• CC1CC(C)CN(C(=O)Nc2ccccc2F)C1 (centres unmarked) = 22.9
• Cc1[nH][nH]c(=O)c1C(c1cc(Br)ccc1O)c1c(C)[nH][nH]c1=O = 12
• CN1CCN(C(=O)CSc2ccc(Cl)cc2)CC1 = 6.35
• CCOc1nc(Nc2ccc(F)cc2)nc(N2CCN(c3ccc(OC)cc3)CC2)n1 = -14.7
• O/N=C/c1cn(-c2ccccc2)nc1-c1cccnc1 = -31.6
• COc1ccc(NC(=O)c2nn(C34CC5CC(CC(C5)C3)C4)cc2[N+](=O)[O-])cc1 = -0.0263
• Cc1ccc(S(=O)(=O)N2CCCC2C(=O)N(C)Cc2cccs2)cc1 (centres unmarked) = -19.9
• CC(=O)Nc1sc2c(c1C(=O)N1CCOCC1)CCCCC2 = 17.9
• CCOC(=O)c1ccc(S(=O)(=O)N2CCN(C(C)=O)CC2)cc1 = 0.122
• CCOc1nc(Nc2ccc(OC)c(Cl)c2)nc(N2CCN(c3ccc(OC)cc3)CC2)n1 = 14.9
• O=C(C1CCCN(S(=O)(=O)c2ccc(Cl)cc2)C1)N1CCCC1 (centres unmarked) = -19
• CCOC(=O)C1CCCN(Cc2c(C(=O)N3CCOCC3)nc3ccccn23)C1 (centres unmarked) = 8.12
• Nc1nc(CSC(=S)N2CCN(c3ccccc3)CC2)nc(Nc2ccccc2)n1 = 0.151
• C=C1C[C@H]2[C@@H]3C=C(C)C4=CC(=O)CC[C@]4(C)[C@H]3CC[C@]2(C)[C@@]1(OC(C)=O)C(C)=O = -21.2
• Cc1ccc(NC(NC(=O)OCCn2c([N+](=O)[O-])cnc2C)C(Cl)(Cl)Cl)cc1 (centres unmarked) = 6.71
• Cc1ccc(C(=O)N2CCN(c3ccc([N+](=O)[O-])c(N4CCOCC4)c3)CC2)cc1 = -60
• Nc1nc(SCC(=O)Nc2ccccc2)nc2nc3c(cc12)CCCC3 = -1.5
• Cc1ccc(C)c(NC(=S)NNC(=O)c2csc(C)c2C)c1 = 1.72
• Cc1ccc(Nc2nc(N)nc(CSC(=S)N3CCN(c4ccccc4)CC3)n2)cc1 = 8.32
• O=C(CN1CCN(c2ccc(Cl)cc2[N+](=O)[O-])CC1)N1CCOCC1 = -33.6
• CC(=O)Nc1ccc(S(=O)(=O)NCc2ccc3[nH]c(C)cc3c2)cc1 = 21
• O=C(c1cccc2ccccc12)N1CCN(c2ccc([N+](=O)[O-])c(N3CCOCC3)c2)CC1 = -13.7
• O=C(C1CCCN(S(=O)(=O)c2ccc(F)cc2)C1)N(Cc1cccs1)C1CC1 (centres unmarked) = -78.2
• COc1ccc(/C=C/CN2CCN(CCc3ccccc3)C(CCO)C2)cc1 (centres unmarked) = -71.9
• Cc1ccccc1S(=O)(=O)Cc1ccc(C(=O)N(C)C2CCCCC2)o1 = -12.5
